target: Proteasome Macropain subunit (Homo sapiens) (UniProt P49721); experiment: Negative allosteric modulation of SDS-activated human erythrocytes 20S proteasome trypsin like activity at 10 uM using Boc-LRR-AMC as substrate measured every 2 mins up to 60 mins by fluorescence assay
Sequence (P49721 whole entry): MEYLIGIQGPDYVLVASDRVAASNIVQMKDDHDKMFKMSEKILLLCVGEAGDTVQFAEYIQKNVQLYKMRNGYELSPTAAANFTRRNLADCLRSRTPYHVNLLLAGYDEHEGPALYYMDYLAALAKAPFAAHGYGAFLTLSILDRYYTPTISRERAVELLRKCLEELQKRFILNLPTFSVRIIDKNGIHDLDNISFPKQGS
Active and inactive are the calls of the source. The rule behind the calls is not given here. Residues, ends and D or L forms follow the SMILES beside them.
parameterMeasured: Activity

INSERT INTO results (compound, valuereported) VALUES
  ('CC(C)C[C@H](NC(=O)[C@H](Cc1ccc(O)cc1)NC(=O)[C@H](CCCNC(=N)N)NC(=O)[C@H](CCCNC(=N)N)NC(=O)[C@@H](N)CCCNC(=N)N)C(=O)N1CCC[C@H]1C(=O)N[C@@H](CCCNC(=N)N)C(=O)N[C@@H](Cc1ccc(O)cc1)C(=O)N[C@@H](C)C(N)=O (H-RRRYLPRYA-NH2)', 'Active'),
  ('CC(C)C[C@H](NC(=O)[C@H](Cc1ccc(O)cc1)NC(=O)[C@@H]1CCCN1C(=O)[C@@H]1CCCN1C(=O)[C@H](CCCNC(=N)N)NC(=O)[C@@H]1CCCN1C(=O)[C@H](CCCNC(=N)N)NC(=O)[C@H](CCCNC(=N)N)NC(=O)[C@@H](N)CCCNC(=N)N)C(=O)N1CCC[C@H]1C(=O)N[C@@H](CCCNC(=N)N)C(=O)N[C@@H](Cc1ccccc1)C(=O)NCC(=O)O (H-RRRPRPPYLPRFG-OH)', 'Active'),
  ('CC(C)C[C@H](NC(=O)[C@H](Cc1ccc(O)cc1)NC(=O)[C@H](CCCNC(=N)N)NC(=O)[C@H](CCCNC(=N)N)NC(=O)[C@@H](N)CCCNC(=N)N)C(=O)N1CCC[C@H]1C(=O)N[C@@H](CCCNC(=N)N)C(=O)N[C@@H](Cc1c[nH]c2ccccc12)C(=O)NCC(N)=O (H-RRRYLPRWG-NH2)', 'Active');

---

target: Proteasome Macropain subunit MB1 (Homo sapiens) (UniProt P28074); assay: Negative allosteric modulation of SDS-activated human erythrocytes 20S proteasome chymotrypsin like activity up to 10 uM using LFP as substrate measured every 2 mins up to 60 mins by fluorescence assay
Sequence (P28074 whole entry): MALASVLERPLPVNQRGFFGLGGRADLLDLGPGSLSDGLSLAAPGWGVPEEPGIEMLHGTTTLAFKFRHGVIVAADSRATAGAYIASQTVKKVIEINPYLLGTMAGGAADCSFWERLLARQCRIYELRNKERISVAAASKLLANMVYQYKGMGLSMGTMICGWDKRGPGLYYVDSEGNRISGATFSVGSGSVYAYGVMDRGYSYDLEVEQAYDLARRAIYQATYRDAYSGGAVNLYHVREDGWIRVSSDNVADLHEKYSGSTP
The source made the active and inactive calls. The rule behind the calls is not given here. Residues, ends and D or L forms follow the SMILES beside them.
Pick one: 1 (yes) = active, 0 (no) = inactive

INSERT INTO assay_data (molecule, discretelabel) VALUES
  ('CC(C)C[C@H](NC(=O)[C@H](Cc1ccc(O)cc1)NC(=O)[C@H](CCCNC(=N)N)NC(=O)[C@H](CCCNC(=N)N)NC(=O)[C@@H](N)CCCNC(=N)N)C(=O)N1CCC[C@H]1C(=O)N[C@@H](CCCNC(=N)N)C(=O)N[C@@H](Cc1ccc(O)cc1)C(=O)N[C@@H](C)C(N)=O (H-RRRYLPRYA-NH2)', '1 (yes)'),
  ('CC(C)C[C@H](NC(=O)[C@H](Cc1ccc(O)cc1)NC(=O)[C@H](CCCNC(=N)N)NC(=O)[C@H](CCCNC(=N)N)NC(=O)[C@@H](N)CCCNC(=N)N)C(=O)N1CCC[C@H]1C(=O)N[C@@H](CCCNC(=N)N)C(=O)N[C@@H](Cc1c[nH]c2ccccc12)C(=O)NCC(N)=O (H-RRRYLPRWG-NH2)', '1 (yes)'),
  ('CC(C)C[C@H](NC(=O)[C@H](Cc1ccc(O)cc1)NC(=O)[C@@H]1CCCN1C(=O)[C@@H]1CCCN1C(=O)[C@H](CCCNC(=N)N)NC(=O)[C@@H]1CCCN1C(=O)[C@H](CCCNC(=N)N)NC(=O)[C@H](CCCNC(=N)N)NC(=O)[C@@H](N)CCCNC(=N)N)C(=O)N1CCC[C@H]1C(=O)N[C@@H](CCCNC(=N)N)C(=O)N[C@@H](Cc1c[nH]c2ccccc12)C(=O)NCC(N)=O (H-RRRPRPPYLPRWG-NH2)', '1 (yes)'),
  ('N=C(N)NCCC[C@H](NC(=O)[C@H](CCCNC(=N)N)NC(=O)[C@@H](N)CCCNC(=N)N)C(=O)N[C@@H](Cc1ccc(O)cc1)C(=O)N1CCC[C@H]1C(=O)N[C@@H](CCCNC(=N)N)C(=O)N[C@@H](Cc1c[nH]c2ccccc12)C(=O)NCC(=O)O (H-RRRYPRWG-OH)', '1 (yes)'),
  ('CC(C)C[C@H](NC(=O)[C@@H]1CCCN1C(=O)[C@@H]1CCCN1C(=O)[C@@H]1CCCN1C(=O)[C@@H]1CCCN1C(=O)[C@H](CCCNC(=N)N)NC(=O)[C@H](CCCNC(=N)N)NC(=O)[C@@H](N)CCCNC(=N)N)C(=O)N[C@@H](Cc1ccc(O)cc1)C(=O)N[C@@H](C)C(=O)O (H-RRRPPPPLYA-OH)', '0 (no)'),
  ('CC(C)C[C@H](NC(=O)[C@H](Cc1ccc(O)cc1)NC(=O)[C@H](CCCNC(=N)N)NC(=O)[C@H](CCCNC(=N)N)NC(=O)[C@@H](N)CCCNC(=N)N)C(=O)N1CCC[C@H]1C(=O)N[C@@H](CCCNC(=N)N)C(=O)N[C@@H](Cc1c[nH]c2ccccc12)C(=O)NCC(=O)O (H-RRRYLPRWG-OH)', '1 (yes)');

Please look at the following molecule next.
Query :: Called result for CC(C)C[C@H](NC(=O)[C@H](Cc1ccc(O)cc1)NC(=O)[C@@H]1CCCN1C(=O)[C@@H]1CCCN1C(=O)[C@H](CCCNC(=N)N)NC(=O)[C@@H]1CCCN1C(=O)[C@H](CCCNC(=N)N)NC(=O)[C@H](CCCNC(=N)N)NC(=O)[C@@H](N)CCCNC(=N)N)C(=O)N1CCC[C@H]1C(=O)N[C@@H](CCCNC(=N)N)C(=O)N[C@@H](Cc1ccccc1)C(=O)NCC(=O)O (H-RRRPRPPYLPRFG-OH)
Result :: 1 (yes)

---

Target: Proteasome component C5 (Homo sapiens)
Sequence (whole entry): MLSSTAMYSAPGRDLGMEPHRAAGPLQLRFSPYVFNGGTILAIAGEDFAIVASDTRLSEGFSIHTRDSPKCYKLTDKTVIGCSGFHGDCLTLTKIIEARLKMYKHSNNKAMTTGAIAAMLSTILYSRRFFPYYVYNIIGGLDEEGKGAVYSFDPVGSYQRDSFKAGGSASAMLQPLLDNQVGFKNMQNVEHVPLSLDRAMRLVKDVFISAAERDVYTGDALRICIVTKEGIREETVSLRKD
Test: Negative allosteric modulation of SDS-activated human erythrocytes 20S proteasome caspase like activity at lower concentration using Z-LLE-AMC as substrate measured every 2 mins up to 60 mins by fluorescence assay
Activity calls are given as the source filed them. No cut-off for these calls is given here. Residues, ends and D or L forms follow the SMILES beside them.
parameterMeasured: Activity

INSERT INTO assay_data (compound, parametermeasured, valuereported) VALUES
  ('CC(C)C[C@H](NC(=O)[C@H](Cc1ccc(O)cc1)NC(=O)[C@@H]1CCCN1C(=O)[C@@H]1CCCN1C(=O)[C@H](CCCNC(=N)N)NC(=O)[C@@H]1CCCN1C(=O)[C@H](CCCNC(=N)N)NC(=O)[C@H](CCCNC(=N)N)NC(=O)[C@@H](N)CCCNC(=N)N)C(=O)N1CCC[C@H]1C(=O)N[C@@H](CCCNC(=N)N)C(=O)N[C@@H](Cc1ccccc1)C(=O)NCC(=O)O (H-RRRPRPPYLPRFG-OH)', 'Activity', 'Active'),
  ('CC(C)C[C@H](NC(=O)[C@H](Cc1ccc(O)cc1)NC(=O)[C@H](CCCNC(=N)N)NC(=O)[C@H](CCCNC(=N)N)NC(=O)[C@@H](N)CCCNC(=N)N)C(=O)N1CCC[C@H]1C(=O)N[C@@H](CCCNC(=N)N)C(=O)N[C@@H](Cc1c[nH]c2ccccc12)C(=O)NCC(=O)O (H-RRRYLPRWG-OH)', 'Activity', 'Active'),
  ('N=C(N)NCCC[C@H](NC(=O)[C@H](CCCNC(=N)N)NC(=O)[C@@H](N)CCCNC(=N)N)C(=O)N[C@@H](Cc1ccc(O)cc1)C(=O)N1CCC[C@H]1C(=O)N[C@@H](CCCNC(=N)N)C(=O)N[C@@H](Cc1c[nH]c2ccccc12)C(=O)NCC(=O)O (H-RRRYPRWG-OH)', 'Activity', 'Active');

---

molecular target: Proteasome Macropain subunit MB1 (Homo sapiens) (UniProt P28074); assay: Negative allosteric modulation of SDS-activated human erythrocytes 20S proteasome chymotrypsin like activity up to 10 uM using LFP as substrate measured every 2 mins up to 60 mins by fluorescence assay
The source made the active and inactive calls. No cut-off for these calls is given here. Residues, ends and D or L forms follow the SMILES beside them.
A correct response names exactly one class from True (active), False (inactive)

Past entries and their recorded results:
INSERT INTO results (molecule, discretelabel) VALUES
  ('CC(C)C[C@H](NC(=O)[C@H](Cc1ccc(O)cc1)NC(=O)[C@@H]1CCCN1C(=O)[C@@H]1CCCN1C(=O)[C@@H]1CCCN1C(=O)[C@@H]1CCCN1C(=O)[C@H](CCCNC(=N)N)NC(=O)[C@H](CCCNC(=N)N)NC(=O)[C@@H](N)CCCNC(=N)N)C(=O)N1CCC[C@H]1C(=O)N[C@@H](CCCNC(=N)N)C(=O)N[C@@H](Cc1c[nH]c2ccccc12)C(=O)NCC(=O)O (H-RRRPPPPYLPRWG-OH)', 'True'),
  ('CC(C)C[C@H](NC(=O)[C@H](Cc1ccc(O)cc1)NC(=O)[C@@H]1CCCN1C(=O)[C@@H]1CCCN1C(=O)[C@H](CCCNC(=N)N)NC(=O)[C@@H]1CCCN1C(=O)[C@H](CCCNC(=N)N)NC(=O)[C@H](CCCNC(=N)N)NC(=O)[C@@H](N)CCCNC(=N)N)C(=O)N1CCC[C@H]1C(=O)N[C@@H](CCCNC(=N)N)C(=O)O (H-RRRPRPPYLPR-OH)', 'True'),
  ('CC(C)C[C@H](NC(=O)[C@H](Cc1ccc(O)cc1)NC(=O)[C@@H]1CCCN1C(=O)[C@@H]1CCCN1C(=O)[C@H](CCCNC(=N)N)NC(=O)[C@@H]1CCCN1C(=O)[C@H](CCCNC(=N)N)NC(=O)[C@H](CCCNC(=N)N)NC(=O)[C@@H](N)CCCNC(=N)N)C(=O)N1CCC[C@H]1C(=O)N[C@@H](CCCNC(=N)N)C(=O)N[C@@H](Cc1c[nH]c2ccccc12)C(=O)NCC(=O)O (H-RRRPRPPYLPRWG-OH)', 'True');

Query :: Answer briefly: the call reported for C[C@H](NC(=O)[C@H](Cc1ccc(O)cc1)NC(=O)[C@H](Cc1ccc(O)cc1)NC(=O)[C@@H]1CCCN1C(=O)[C@@H]1CCCN1C(=O)[C@@H]1CCCN1C(=O)[C@@H]1CCCN1C(=O)[C@H](CCCNC(=N)N)NC(=O)[C@H](CCCNC(=N)N)NC(=O)[C@@H](N)CCCNC(=N)N)C(=O)O (H-RRRPPPPYYA-OH) in this assay.
Result :: False

Where do the numbers come from? From ChEMBL document CHEMBL4371016.
